tested on: MCF-7 cells; assay: Cytotoxicity toward drug-sensitive MCF-7 cells (sulforhodamine B binding assay); type: cell-based, human; conditions: percent of MCF-7 cells killed by 10 μ/ml of the compound
Grouping key: Toxicity. Bins: lower level: < 30%; middle level: ≥ 30% and < 50%; upper level: ≥ 50%

COMPOUND: CN1CCc2c1nc1ccccc1c2NC(=O)CNC(C)(C)C [Compound 40]
LABEL_CLASS: lower level
//
COMPOUND: CC(C)(C)NCC(=O)Nc1c2c(nc3ccccc13)N(Cc1ccccc1)CC2 [Compound 60]
LABEL_CLASS: lower level
//
COMPOUND: O=C(CN1CCCCC1)Nc1c2c(nc3ccccc13)N(Cc1ccccc1)CC2 [Compound 62]
LABEL_CLASS: lower level
//
COMPOUND: Nc1c2c(nc3ccccc13)N(c1ccccc1)CC2 [Compound 51]
LABEL_CLASS: upper level
//
COMPOUND: CN1CCc2c1nc1ccccc1c2NC(=O)CNCCc1ccc(O)cc1 [Compound 44]
LABEL_CLASS: lower level
//
COMPOUND: CC(C)NCC(=O)Nc1c2c(nc3ccccc13)N(Cc1ccccc1)CC2 [Compound 59]
LABEL_CLASS: middle level
//
COMPOUND: CC(C)NCC(=O)Nc1c2c(nc3ccccc13)N(C)CC2 [Compound 39]
LABEL_CLASS: middle level
//
COMPOUND: CN1CCc2c1nc1ccccc1c2NC(=O)CCc1cc(C(C)(C)C)c(O)c(C(C)(C)C)c1 [Compound 46]
LABEL_CLASS: upper level
//
COMPOUND: Nc1c2c(nc3ccccc13)N(Cc1ccccc1)CC2 [Compound 53]
LABEL_CLASS: middle level
//
COMPOUND: CN1CCN(CC(=O)Nc2c3c(nc4ccccc24)N(Cc2ccccc2)CC3)CC1 [Compound 63]
LABEL_CLASS: lower level
//
COMPOUND: Nc1c2c(nc3ccccc13)N(C1CCCCC1)CC2 [Compound 49]
LABEL_CLASS: upper level
//
COMPOUND: CN1CCc2c1nc1ccccc1c2N=C(c1ccccc1)N1CCCCC1 [Compound 47]
LABEL_CLASS: upper level
//
COMPOUND: CN1CCc2c1nc1ccccc1c2NC(=O)C12CC3CC(CC(C3)C1)C2 [Compound 45]
LABEL_CLASS: lower level
//
COMPOUND: O=C(Nc1c2c(nc3ccccc13)N(Cc1cccc(Cl)c1)CC2)C12CC3CC(CC(C3)C1)C2 [Compound 52]
LABEL_CLASS: middle level
//
COMPOUND: CCN(CC)CC(=O)Nc1c2c(nc3ccccc13)N(Cc1ccccc1)CC2 [Compound 61]
LABEL_CLASS: lower level
